FYI, the data here is from PubChem BioAssay AID2069.

Experiment: HTRF signal interference by compounds, confirmation, artefact control for SUMOylation inhibitor project, biochemical, uHTS (AID 2069)
Settings: HTRF interference counterscreen, fluorescence, at 35 µM, stronger effect = higher value
Hit rate of the full screen: of about 1,200 compounds, about 210 (18%) were called active. This excerpt belongs to a sample that is enriched for actives.
Collected inhibition values appear next to each entry.
Result type: inhibition (%)

[[record]]
compound = "CCC(C)NC(=O)c1c(N)n(Cc2ccc3c(c2)OCO3)c2nc3ccccc3nc12 (stereo not drawn)"
unit_spec = "%"
measured_result = 24.4

[[record]]
compound = "Nc1c(C(=O)NCCCc2ccccc2)c2nc3ccccc3nc2n1Cc1cccs1"
unit_spec = "%"
measured_result = 8

[[record]]
compound = "CN1CCc2nc3sc(C#N)c(N)c3c(-c3cccs3)c2C1"
unit_spec = "%"
measured_result = 14.3

[[record]]
compound = "COCCCn1c(N)c(C(=O)OCCOC)c2nc3ccccc3nc21"
unit_spec = "%"
measured_result = 29.9

[[record]]
compound = "CCCCn1c(N)c(C(=O)OCC2CCCO2)c2nc3ccccc3nc21 (stereo not drawn)"
unit_spec = "%"
measured_result = 28.1

[[record]]
compound = "CC(=O)c1ccc2c(c1)C1C(Cl)C(Sc3ccccc3[N+](=O)[O-])CC1C(C(=O)O)N2 (stereo not drawn)"
unit_spec = "%"
measured_result = 5.25

[[record]]
compound = "CN1CCN(c2ccc(S(C)(=O)=O)cc2[N+](=O)[O-])CC1"
unit_spec = "%"
measured_result = -0.45

[[record]]
compound = "N#C/C(=C(/O)c1ccc(S(=O)(=O)N(CCCl)CCCl)cc1)c1nc2ccccc2[nH]1"
unit_spec = "%"
measured_result = 28.4

[[record]]
compound = "CCC(C)NC(=O)c1c(N)n(CCCOC)c2nc3ccccc3nc12 (stereo not drawn)"
unit_spec = "%"
measured_result = 36.5

[[record]]
compound = "CC(C)OCCCNC(=O)c1c(N)n(CC2CCCO2)c2nc3ccccc3nc12 (stereo not drawn)"
unit_spec = "%"
measured_result = 51.1

[[record]]
compound = "COCCCn1c(N)c(C(=O)Nc2ccccc2)c2nc3ccccc3nc21"
unit_spec = "%"
measured_result = 7.4

[[record]]
compound = "CC(C)CCNC(=O)c1c(N)n(CC2CCCO2)c2nc3ccccc3nc12 (stereo not drawn)"
unit_spec = "%"
measured_result = 30.4

[[record]]
compound = "O=C(O)c1cccc2c1NC(c1cccc([N+](=O)[O-])c1)C1CC(Sc3ccccc3[N+](=O)[O-])C(Cl)C21 (stereo not drawn)"
unit_spec = "%"
measured_result = 26.1

[[record]]
compound = "CC(C)CCNC(=O)c1c(N)n(Cc2ccc3c(c2)OCO3)c2nc3ccccc3nc12"
unit_spec = "%"
measured_result = 19.7

[[record]]
compound = "CCCNC(=O)c1c(N)n(CC2CCCO2)c2nc3ccccc3nc12 (stereo not drawn)"
unit_spec = "%"
measured_result = 42

[[record]]
compound = "CN1CCC2(CC1)C(C#N)=C(N)NC(S)=C2C#N"
unit_spec = "%"
measured_result = 76.5

[[record]]
compound = "COCCCn1c(N)c(C(=O)NCCC(C)C)c2nc3ccccc3nc21"
unit_spec = "%"
measured_result = 24.1

[[record]]
compound = "CCCCNC(=O)c1c(N)n(CCCOC)c2nc3ccccc3nc12"
unit_spec = "%"
measured_result = 30.9

[[record]]
compound = "COc1cc(Cn2c(N)c(C(=O)NCc3ccco3)c3nc4ccccc4nc32)cc(OC)c1OC"
unit_spec = "%"
measured_result = 11.6

[[record]]
compound = "COc1ccc(Cc2nccc3cc(OC)c(OC)cc23)cc1OC"
unit_spec = "%"
measured_result = -2.9

[[record]]
compound = "COc1ccc(Cn2c(N)c(C(=O)NCc3ccco3)c3nc4ccccc4nc32)cc1"
unit_spec = "%"
measured_result = 11.2

[[record]]
compound = "O=C(c1cccn2c(=O)c3ccc(Cl)cc3nc12)N1CCC2(CC1)OCCO2"
unit_spec = "%"
measured_result = 48.9

[[record]]
compound = "O=C1NC(=O)N(Cc2ccco2)C(=O)/C1=C/c1ccc(-c2cccc([N+](=O)[O-])c2)o1"
unit_spec = "%"
measured_result = 14.7

[[record]]
compound = "CCCCn1c(N)c(C(=O)NCc2cccs2)c2nc3ccccc3nc21"
unit_spec = "%"
measured_result = 9.9

[[record]]
compound = "O=C1NC(=O)N(Cc2ccco2)C(=O)/C1=C\\c1cccn1CCOc1ccc(Cl)cc1"
unit_spec = "%"
measured_result = -5.15

[[record]]
compound = "O=C(O)c1ccc2c(c1)C1C(Cl)C(Sc3ccccc3[N+](=O)[O-])CC1C(c1cccc([N+](=O)[O-])c1)N2 (stereo not drawn)"
unit_spec = "%"
measured_result = -6.5

[[record]]
compound = "Cc1[nH]n(-c2ccccc2)c(=O)c1C(c1ccc([N+](=O)[O-])cc1)c1c(C)[nH]n(-c2ccccc2)c1=O"
unit_spec = "%"
measured_result = -5.95

[[record]]
compound = "CC(=O)c1ccc2c(c1)C1C(Cl)C(Sc3ccccc3[N+](=O)[O-])CC1C(c1ccccc1[N+](=O)[O-])N2 (stereo not drawn)"
unit_spec = "%"
measured_result = -3.55

[[record]]
compound = "CCN(CC)c1ccc([N+](=O)[O-])c2cccnc12"
unit_spec = "%"
measured_result = -11.9

[[record]]
compound = "O=C(O)CCn1cc(C=C2C(=O)NC(=O)NC2=O)c(-c2ccc(Br)cc2)n1"
unit_spec = "%"
measured_result = -3.4

[[record]]
compound = "c1ccc2c(NC3=NCCS3)cccc2c1"
unit_spec = "%"
measured_result = -3.5

[[record]]
compound = "Cc1c(CC(=O)N2C[C@H]3C[C@@H](C2)c2cccc(=O)n2C3)c(=O)oc2c(C)c(O)ccc12"
unit_spec = "%"
measured_result = 50.5

[[record]]
compound = "O=c1[nH]c(O)c(/C=C2\\C=Nc3ccc(OCc4ccccc4)cc32)c(=O)[nH]1"
unit_spec = "%"
measured_result = 8.25

[[record]]
compound = "O=c1[nH]c(O)c(/C=C2/C=CC(c3cc(Cl)ccc3Cl)=N2)c(=O)[nH]1"
unit_spec = "%"
measured_result = 18.3

[[record]]
compound = "CCCCn1c(NS(=O)(=O)c2ccc(C)cc2)c(C(=O)OCC)c2nc3ccccc3nc21"
unit_spec = "%"
measured_result = 58

[[record]]
compound = "O=C1NC(=S)NC(=O)C1=Cc1cccn1-c1ccc(O)cc1"
unit_spec = "%"
measured_result = 21.8

[[record]]
compound = "Cc1ccccc1-n1c(O)c(/C=N/NC(=O)c2ccccc2O)c(=O)[nH]c1=S"
unit_spec = "%"
measured_result = 3.4

[[record]]
compound = "COCCCn1c(N)c(C(=O)NCc2ccco2)c2nc3ccccc3nc21"
unit_spec = "%"
measured_result = 34.1

